All figures here come from a melting point compilation (Tetko et al.; mined from patent text by program, amines drawn as free bases though some values may be those of a salt).

In this section, each of the molecules is paired with its reported melting point.

> print(dat)
                                   molecule  assay.readout        result
1  CC1=CC(O)C(OC(=O)c2ccccc2)C(C)(C)CC1=O (stereo not given)  melting point  99 to 100 °C

The measured melting point associated with "CCOC(=O)c1ccc(NCCCCCCCCCCC[Si](C)(C)C)cc1" reads 66 to 68 °C

The measured melting point associated with "Cc1cccc([N+](=O)[O-])c1-c1c(C)cccc1[N+](=O)[O-]" reads 107 to 108 °C

The measured melting point associated with "O=c1[nH]c(NCCCNc2ncccc2Cl)ncc1Cc1ccc(Cl)cc1" reads 180 to 181 °C

The measured melting point associated with N#Cc1cc(S(=O)c2ccccc2)[nH]c1-c1ccc(Cl)cc1 (stereo not given) reads 169 to 170 °C

---

In this section, each of the compounds is paired with its reported melting point.

Below, each entry is followed by its recorded melting point result.
> print(dat)
                                   compound  assay.readout         result
1   CCCC(=O)Oc1ccc2nc(NC(=O)Nc3ccccc3)sc2c1  melting point  207 to 211 °C
2  CN(C)C=Cc1ccc(-c2csc(-c3ccc(F)cc3)n2)cc1[N+](=O)[O-]  melting point  137 to 138 °C
3  CON=C(C)c1cc2c(Cl)cc(F)c(-n3c(=O)cc(C(F)(F)F)n(C)c3=O)c2o1  melting point  176 to 178 °C
4     COc1ccc(/C=C/C(=O)Nc2ccccc2C(=O)O)cn1  melting point  209 to 211 °C
5  CCC1(CCCCl)C(=O)Nc2ccc(Cl)cc21 (stereo unspecified)  melting point  105 to 107 °C

The measured melting point associated with "COc1ccc(N=Nc2cc(OC)cc(C(C)(C)C)c2O)cc1" reads 125 to 127 °C

---

ASSAY_READOUT: melting point

> print(dat)
                                   compound         result
1  COc1ccc(C(=O)Cc2ccncc2)c2c1OCC2C (configuration not stated)  111 to 117 °C
2  CC(C)(C)c1cc(CS[C@@H]2CCCCCC[C@H]2SCc2cc(C(C)(C)C)cc(C(C)(C)C)c2O)c(O)c(C(C)(C)C)c1 (relative stereo)  122 to 123 °C
3     Cn1nc(-c2c(Cl)cccc2Cl)nc1-c1ccc(Br)s1  130 to 132 °C
4  COC(=O)c1c(SC)nn(-c2c(Cl)cc(Cl)cc2Cl)c1N  160 to 162 °C
5             CC(C)c1nc(-c2cccnc2)c[nH]c1=O  200 to 202 °C
6                O=C(CCc1ccc2cc(F)ccc2n1)NO  208 to 210 °C

The measured melting point associated with "O=[N+]([O-])c1ccc2c(c1)S(=O)(=O)c1ccccc1-2" reads 259 °C

The measured melting point associated with CCCCOC(=O)C(NC(=O)OCC(Cl)(Cl)Cl)n1cnc2ncncc21 (configuration not stated) reads 114 to 116 °C

The measured melting point associated with "CN(C)CCNC(=O)N1CCN(c2ccc(Cl)cc2)CC1" reads 125 to 128 °C

The measured melting point associated with "CC=CCOc1ccc(C(=O)C=Cc2cccc(OC)c2)c(O)c1" reads 97 to 100 °C

The measured melting point associated with "CS(=O)(=O)c1ccc(-c2cc(C(=O)c3ccccc3)sc2N2CCOCC2)cc1" reads 173 °C

---

In this section, each of the molecules is paired with its reported melting point.

Below, each entry is followed by its recorded melting point result.
> print(dat)
                                    molecule  assay.readout         result
 1  CCOC(=O)c1ccc(NC(=O)CCn2cnc3c(=O)[nH]cnc32)cc1  melting point  265 to 269 °C
 2  CC1CC(c2c[nH]c(-c3ccc(F)cc3)c2-c2ccncc2)=CCN1C (centres undefined)  melting point  198 to 201 °C
 3    CC(C)Sc1nc(-c2ccc(Cl)cc2)c(CCC(=O)O)o1  melting point  132 to 133 °C
 4  O=C1N(C(c2ccccc2)c2ccccc2)c2cc(F)ccc2C1(O)c1cc2c(cc1O)OCC2 (centres undefined)  melting point  147 to 149 °C
 5  COC[C@H]1C[C@H]1c1ccccc1 (relative stereo)  melting point    46 to 50 °C
 6  CNC(=O)N(O)C(C)C#CCCc1ccccc1 (centres undefined)  melting point  121 to 123 °C
 7  Cc1nc2c(N)nc3ccccc3c2n1CCOCCNC(=O)c1ccccc1  melting point  210 to 212 °C
 8  COc1cc(OC)c2c(=O)[nH]c(-c3ccc(OCCO)c(OC)c3)nc2c1  melting point  246 to 248 °C
 9      O=C1CSC(c2ccc(-n3ccc(=O)cc3)cc2)=NN1  melting point  289 to 291 °C
10  Cn1cncc1C1(C(c2cccs2)c2cccs2)CCOC1=O (centres undefined)  melting point          80 °C

The measured melting point associated with CCC(C(=O)O)c1cccc(Oc2ccccc2Cl)c1O (centres undefined) reads 143 to 145 °C

The measured melting point associated with CCC1C=C2NC(=O)CC[C@]2(C)[C@H]2CC[C@]3(C)[C@@H]([C@H](C)CCCC(C)C)CC[C@H]3[C@H]12 (some centres undefined) reads 147 to 149 °C

---

ASSAY_READOUT: melting point

Below, each entry is followed by its recorded melting point result.
> print(dat)
                                 cpd.smiles         result
1            CCS(=O)(=O)N1CCSc2cccc(Cl)c2C1  126 to 128 °C
2  CCCc1c(OCCCCSc2nnc(SCC(=O)O)s2)ccc(C(C)=O)c1O  123 to 124 °C
3  CCCCOC(=O)Oc1cc(-n2c(OCC)nc(C(F)(F)F)cc2=O)c(F)cc1Cl  100 to 102 °C

The measured melting point associated with "C=C(C)N(c1c(C)cccc1C)S(C)(=O)=O" reads 80 to 81 °C

The measured melting point associated with "CC(C)(C)OC(=O)NCC1=C(CC(=O)O)CC=CC1" reads 183 °C

The measured melting point associated with "O=C(C=Cc1cncc(O)c1)NCCCN1CCN(C(c2ccccc2)c2ccccc2)CC1" reads 189 to 191 °C

The measured melting point associated with "Cc1nn(-c2ccc(F)cc2)cc1C(=O)N(C)c1ccc(OCC(C)(C)C)c(C#N)c1" reads 65 to 69 °C

The measured melting point associated with "C[C@H]1C(=O)OCCN1CC=CC(=O)Nc1cc2c(Nc3ccc(F)c(Cl)c3)ncnc2cc1OCC1CC1" reads 182 °C

---

ASSAY_READOUT: melting point

> print(dat)
                                   molecule         result
1    N#Cc1cc(-c2cc(C(F)F)c3cn[nH]c3n2)ccc1N         263 °C
2  O=C(O)[C@@H]1CCCN1Cc1cc2cc3c(cc2c2cc(OCc4ccccc4)ccc12)OCO3  147 to 149 °C
3  CC(Oc1cc(O)ccn1)C(F)(F)F (stereo unspecified)    67 to 69 °C
4             O=C(O)c1ccc(C(=O)N2CCOCC2)nc1  181 to 183 °C

The measured melting point associated with "COc1cccc(-c2ccc3c(c2)C(C)(C)OC(=O)N3)c1" reads 164 to 165 °C

The measured melting point associated with "COCCOc1ccc(/C=C/C(=O)O)c(Oc2ncc(C(F)(F)F)cc2Cl)c1" reads 132 °C

The measured melting point associated with CC1CC2(OC3CC4C5CCC6CC(O)CCC6(C)C5C(=O)CC4(C)C3C2(C)O)OC1(C)C (stereo unspecified) reads 206 to 208 °C

The measured melting point associated with "CCOC(=O)c1cn(-c2cc(NC(=O)OC(C)(C)C)c(F)cc2F)c2c(C)c(F)c(F)c(C)c2c1=O" reads 141 to 142 °C

The measured melting point associated with "CCOC(=O)CC[C@H](NC(=O)c1ccc(CCCCc2c(N)nc(N)nc2O)cc1)C(=O)OCC" reads 75 to 76 °C

The measured melting point associated with "Cc1cc2c(s1)S(=O)(=O)NC2=O" reads 231 °C

---

In this section, each of the compounds is paired with its reported melting point.

> print(dat)
                                   compound  assay.readout         result
1  CC1=C(C(=O)CS(=O)(=O)NC(C)C)C(c2cccc([N+](=O)[O-])c2)C(C(=O)OC(C)C)=C(C)N1 (stereo unspecified)  melting point  119 to 121 °C

The measured melting point associated with Cc1ccc(C2CC(=O)CC(c3ccc(C)cc3)N2C)cc1 (stereo unspecified) reads 105 to 107 °C

The measured melting point associated with "CCOc1ccccc1C(=O)c1oc2ccc(Cl)cc2c1N" reads 114 to 115 °C

The measured melting point associated with "COCCCN1C[C@H](O)c2cc(S(N)(=O)=O)sc2S1(=O)=O" reads 109 to 111 °C

The measured melting point associated with "CC(C)(C)OC(=O)Nc1cccc(C(=O)OCC#N)c1" reads 118 to 119 °C

The measured melting point associated with "COC(=O)c1cn(Cc2ccc(OCc3ccccc3)cc2)cc1-c1ccccc1" reads 97 to 98 °C
